Molecular target: T1, m-TREX1 (Three Prime Repair Exonuclease 1, catalytic domain) (mouse, UniProt Q91XB0 1-242)
T1 sequence: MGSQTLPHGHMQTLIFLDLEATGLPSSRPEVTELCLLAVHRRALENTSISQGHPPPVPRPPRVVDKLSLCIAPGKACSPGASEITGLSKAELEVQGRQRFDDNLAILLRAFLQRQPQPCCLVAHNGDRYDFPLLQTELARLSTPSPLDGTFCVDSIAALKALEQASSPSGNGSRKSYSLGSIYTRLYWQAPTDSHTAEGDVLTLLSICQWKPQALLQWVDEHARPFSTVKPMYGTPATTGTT
Test: fluorescence polarization anisotropy
METRIC_NAME: Kd (nM)

[[record]]
binder = "U3 3'-processed (dsDNA) DNA 1: AGTGAATTAGCCCTTCCA DNA 2: ACTGGAAGGGCTAATTCACT"
reading = 216

[[record]]
binder = "U3 unprocessed (dsDNA) DNA 1: AGTGAATTAGCCCTTCCAGT DNA 2: ACTGGAAGGGCTAATTCACT"
reading = 118


Origin of the recorded values: paper PMC10983988
